All figures here come from patent US8324264B1.

# System: E. coli biofilms
# protocol details: Biofilm growth assay (spreading biofilm on semi-solid agar), E. coli
# Format: cell-based
# particulars: Escherichia coli, biofilm growth assay, overnight 37° C., vs negative controls; Tables 1-5; read-out: E. coli: concentration that reduces the area of the spreading biofilm by greater than or equal to 85%
In this section we review reported IC85 values for a set of compounds.
reported endpoint: IC85 (µg/mL)

INSERT INTO results (compound, inequality_sign, value_observed) VALUES
  ('C=CC1=C2[C@@H]3CC(C)(C)CC[C@]3(C(=O)O)CC[C@@]2(C)[C@]2(C)CC[C@H]3C(C)(C)c4n[nH]c(N)c4C[C@]3(C)C2C1 (some centres unmarked)', '=', 1),
  ('CC1(C)CC[C@]2(C(=O)O)CC[C@]3(C)C(=CC[C@@H]4[C@@]5(C)Cc6c(noc6N)C(C)(C)[C@@H]5CC[C@]43C)[C@@H]2C1', '>', 8),
  ('CC1(C)CC[C@]2(C(=O)O)CC[C@]3(C)C(=C(c4ccc5c(c4)CCN5)CC4[C@@]5(C)Cc6c(n[nH]c6N)C(C)(C)[C@@H]5CC[C@]43C)[C@@H]2C1 (some centres unmarked)', '=', 0.5),
  ('CC1(C)CC[C@]2(c3n[nH]c(O)c3N3CCNCC3)CC[C@]3(C)C(=CCC4[C@@]5(C)Cc6c(n[nH]c6N)C(C)(C)C5CC[C@]43C)C2C1 (some centres unmarked)', '=', 1),
  ('CC1(C)CC[C@]2(c3cc(O)[nH]n3)CC[C@]3(C)C(=CCC4[C@@]5(C)Cc6c(n[nH]c6N)C(C)(C)[C@@H]5CC[C@]43C)[C@@H]2C1 (some centres unmarked)', '=', 0.5),
  ('CC1(C)CC[C@]2(C(=O)O)CC[C@]3(C)C(=C(Cl)CC4[C@@]5(C)Cc6c(n[nH]c6N)C(C)(C)C5CC[C@]43C)C2C1 (some centres unmarked)', '=', 1),
  ('CC1(C)CC[C@]2(C(=O)O)CC[C@]3(C)C(=CCC4[C@@]5(C)Cc6c(n[nH]c6Br)C(C)(C)C5CC[C@]43C)C2C1 (some centres unmarked)', '>', 8),
  ('Cn1cc2c(n1)C(C)(C)C1CC[C@]3(C)C(CC=C4C5CC(C)(C)CC[C@]5(C(=O)O)CC[C@]43C)[C@@]1(C)C2 (some centres unmarked)', '>', 16),
  ('CC1(C)CC[C@]2(c3n[nH]c(O)c3N3CCOCC3)CC[C@]3(C)C(=CCC4[C@@]5(C)Cc6c(n[nH]c6N)C(C)(C)[C@@H]5CC[C@]43C)[C@@H]2C1 (some centres unmarked)', '=', 0.5),
  ('C[C@H]1[C@H](C)CC[C@]2(CO)CC[C@]3(C)C(=CC[C@@H]4[C@@]5(C)CC[C@H](O)C(C)(C)[C@@H]5CC[C@]43C)[C@H]12 [Uvaol, reference compound]', '>', 8),
  ('CC1(C)CC[C@]2(C(=O)O)CC[C@]3(C)C(C(=O)C=C4[C@@]5(C)Cc6c(n[nH]c6N)C(C)(C)[C@@H]5CC[C@]43C)[C@@H]2C1 (some centres unmarked)', '=', 8),
  ('CC1(C)CC[C@]2(C(=O)O)CC[C@]3(C)C(=C(c4ccccc4N)CC4[C@@]5(C)Cc6c(n[nH]c6N)C(C)(C)C5CC[C@]43C)C2C1 (some centres unmarked)', '=', 2),
  ('Cc1nnc(S)n1NC(=O)[C@]12CCC(C)(C)CC1C1=CCC3[C@@]4(C)Cc5c(n[nH]c5N)C(C)(C)C4CC[C@@]3(C)[C@]1(C)CC2 (some centres unmarked)', '=', 2),
  ('CC1(C)CC[C@]2(C(=O)O)CC[C@]3(C)C(=C(c4c[nH]c5ccccc45)CC4[C@@]5(C)Cc6c(n[nH]c6N)C(C)(C)[C@@H]5CC[C@]43C)[C@@H]2C1 (some centres unmarked)', '=', 1),
  ('CC1(C)CC[C@]2(C(=O)O)CC[C@]3(C)C(=C(c4cccc(O)c4)CC4[C@@]5(C)Cc6c(n[nH]c6N)C(C)(C)C5CC[C@]43C)C2C1 (some centres unmarked)', '=', 2),
  ('C[C@@H]1CC[C@]2(C(=O)O)CC[C@]3(C)C(=CCC4[C@@]5(C)C[C@H](CO)[C@H](O)C(C)(C)C5CC[C@]43C)C2[C@H]1C (some centres unmarked)', '>', 8),
  ('Cn1nc([C@]23CCC(C)(C)CC2C2=CCC4[C@@]5(C)Cc6c(n[nH]c6N)C(C)(C)C5CC[C@@]4(C)[C@]2(C)CC3)cc1N (some centres unmarked)', '>', 2),
  ('CC1(C)CC[C@]2(C(=O)Sc3nnc(N)[nH]3)CC[C@]3(C)C(=CCC4[C@@]5(C)Cc6c(n[nH]c6N)C(C)(C)C5CC[C@]43C)C2C1 (some centres unmarked)', '=', 2),
  ('CCC1=C2[C@@H]3CC(C)(C)CC[C@]3(C(=O)O)CC[C@@]2(C)[C@]2(C)CC[C@H]3C(C)(C)c4n[nH]c(N)c4C[C@]3(C)C2C1 (some centres unmarked)', '=', 2),
  ('CC1(C)CC[C@]2(C(=O)O)CC[C@]3(C)C(=CCC4[C@@]5(C)CC6=NCN=C6C(C)(C)C5CC[C@]43C)C2C1 (some centres unmarked)', '>', 8),
  ('C[C@@H]1c2n[nH]c(N)c2C[C@]2(C)C3CC=C4[C@@H]5CC(C)(C)CC[C@]5(C(=O)O)CC[C@@]4(C)[C@]3(C)CC[C@@H]12 (some centres unmarked)', '=', 1),
  ('CC1(C)CC[C@]2(C(=O)Sc3nnc(N)[nH]3)CC[C@]3(C)C(=C(c4cccnc4)CC4[C@@]5(C)Cc6c(n[nH]c6N)C(C)(C)[C@@H]5CC[C@]43C)[C@@H]2C1 (some centres unmarked)', '=', 1),
  ('CC1(C)CC[C@]2(c3n[nH]c(O)c3CCN)CC[C@]3(C)C(=CCC4[C@@]5(C)Cc6c(n[nH]c6N)C(C)(C)[C@@H]5CC[C@]43C)[C@@H]2C1 (some centres unmarked)', '=', 0.5);

###

Structures can show the parent of a compound that is named as a salt.
reported endpoint: melting point

INSERT INTO assay_data (compound, value_observed) VALUES
  ('CN(C)c1cc(C2=C3[C@@H]4CC(C)(C)CC[C@]4(C(=O)O)CC[C@@]3(C)[C@]3(C)CC[C@H]4C(C)(C)c5n[nH]c(N)c5C[C@]4(C)C3C2)ccn1 (stereo partly shown)', '> 300 °C'),
  ('CC1(C)CC[C@]2(C(=O)O)CC[C@]3(C)C(=C(c4cc[nH]c4)CC4[C@@]5(C)Cc6c(n[nH]c6N)C(C)(C)[C@@H]5CC[C@]43C)[C@@H]2C1 (stereo partly shown)', '> 300 °C'),
  ('CC1(C)CC[C@]2(C(=O)Sc3nnc(N)[nH]3)CC[C@]3(C)C(=C(c4cccnc4)CC4[C@@]5(C)Cc6c(n[nH]c6N)C(C)(C)[C@@H]5CC[C@]43C)[C@@H]2C1 (stereo partly shown)', '> 300 °C'),
  ('CC1(C)CC[C@]2(C(=O)Nc3nnc(N)s3)CC[C@]3(C)C(=CCC4[C@@]5(C)Cc6c(n[nH]c6N)C(C)(C)C5CC[C@]43C)C2C1 (stereo partly shown) (as salt: ammonium)', '280 to 300 °C (dec.)');
